- Tested on: rice (Diamant variety)
- Assay Overview: Rice seed treatment with BHMPA salts: germinating power
- Format: in vivo
- Protocol Conditions: rice; vs control; 1·10^−9% solution
Each item that follows carries a reported dry mass of the roots increased by.
Measure Name: dry mass of the roots increased by

>  <Compound>
O=P([O-])(CO)CO.O=P([O-])(CO)CO.[Ca+2] [Ca-salt, Calcium BHMPA Salt]

>  <Measure Name>
dry mass of the roots increased by

>  <Result>
76%

$$$$
>  <Compound>
O.O.O=P([O-])(CO)CO.O=P([O-])(CO)CO.[Mn+2] [Mn-salt, Manganese BHMPA Salt]

>  <Measure Name>
dry mass of the roots increased by

>  <Result>
60%

$$$$
>  <Compound>
O=P([O-])(CO)CO.O=P([O-])(CO)CO.[Zn+2] [Zn-salt, Zinc BHMPA Salt]

>  <Measure Name>
dry mass of the roots increased by

>  <Result>
59%

$$$$
>  <Compound>
O.O.O=P([O-])(CO)CO.O=P([O-])(CO)CO.[Co+2] [Co-salt, Cobalt BHMPA Salt]

>  <Measure Name>
dry mass of the roots increased by

>  <Result>
53%

$$$$

---

- Test system: rice (Diamant variety)
- Assay Overview: Rice seed treatment with BHMPA salts: germinating power
- Format: in vivo
- Protocol Conditions: rice seeds; solution concentration 1 · 10^−10%
We label by threshold. Values of Mass, dry, root strictly beneath 0.3 g/100 plantlings are 1. Values of 0.3 g/100 plantlings and up are 0.

>  <Compound>
O.O.O=P([O-])(CO)CO.O=P([O-])(CO)CO.[Co+2] [Co-salt, Cobalt BHMPA Salt]

>  <Assigned Label>
1

$$$$
>  <Compound>
O=P([O-])(CO)CO.O=P([O-])(CO)CO.[Mg+2] [Mg-salt, Magnesium BHMPA Salt]

>  <Assigned Label>
0

$$$$
>  <Compound>
O.O.O=P([O-])(CO)CO.O=P([O-])(CO)CO.[Mn+2] [Mn-salt, Manganese BHMPA Salt]

>  <Assigned Label>
1

$$$$
>  <Compound>
O=P([O-])(CO)CO.[Na+] [Na-salt, Sodium BHMPA Salt]

>  <Assigned Label>
1

$$$$
>  <Compound>
O=P([O-])(CO)CO.O=P([O-])(CO)CO.[Ca+2] [Ca-salt, Calcium BHMPA Salt]

>  <Assigned Label>
1

$$$$

---

Property: Mass, wet, sprout, + % to control; scope: individual molecules
- Test system: rice (Diamant variety)
- Assay Overview: Rice seed treatment with BHMPA salts: germinating power
- Format: in vivo
- Protocol Conditions: rice seeds; solution concentration 1 · 10^−10%

>  <Molecule>
O=P([O-])(CO)CO.O=P([O-])(CO)CO.[Mg+2] [Mg-salt, Magnesium BHMPA Salt]

>  <Target Entity>
rice (Diamant variety)

>  <Mass, wet, sprout, + % to control [%]>
41.5

$$$$
>  <Molecule>
O.O.O=P([O-])(CO)CO.O=P([O-])(CO)CO.[Co+2] [Co-salt, Cobalt BHMPA Salt]

>  <Target Entity>
rice (Diamant variety)

>  <Mass, wet, sprout, + % to control [%]>
33

$$$$
>  <Molecule>
O=P([O-])(CO)CO.[Na+] [Na-salt, Sodium BHMPA Salt]

>  <Target Entity>
rice (Diamant variety)

>  <Mass, wet, sprout, + % to control [%]>
33

$$$$
>  <Molecule>
O=P([O-])(CO)CO.O=P([O-])(CO)CO.[Ca+2] [Ca-salt, Calcium BHMPA Salt]

>  <Target Entity>
rice (Diamant variety)

>  <Mass, wet, sprout, + % to control [%]>
29.5

$$$$
>  <Molecule>
O.O.O=P([O-])(CO)CO.O=P([O-])(CO)CO.[Mn+2] [Mn-salt, Manganese BHMPA Salt]

>  <Target Entity>
rice (Diamant variety)

>  <Mass, wet, sprout, + % to control [%]>
34

$$$$
